The reported measurements were obtained from the supplement of paper PMC10567573.

test: protein stability index of a GFP-peptide fusion (GPS, HEK-293T) (PSI 1-6); higher = more stable; conditions: treatment: DMSO; c terminus: a fixed tail appended;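 also: 24-mer peptide tiles fused after GFP, lentivirally expressed, FACS-sorted into six equal bins by GFP/DsRed ratio, decoded by Illumina sequencing, PSI is the read-weighted mean bin number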
Provide the recorded protein stability index for the entries that follow.

MONOMER_SEQUENCE | RECORDED_VALUE
FGSSVPEKQSRCVNIEWHRFRFGQ [WSB1] | 2.07
VSNDSHTWVTVKNGSGDMIFEGNS [CPXM2] | 3.79
AMYISQEEWGHQDPSKRALSRDTV [ZNF263] | 3.81

Task item: For the sequence SNIDKKFSAHYDAVEAELKSSTVG [FAM50A] , what protein stability index is on record?
Reply: 4.64

* * *

I'd appreciate it if you could supply protein stability index values for the items below.
test: protein stability index of a GFP-peptide fusion (GPS, HEK-293T) (PSI 1-6); higher = more stable; details: treatment: DMSO; c terminus: a fixed tail appended
Numbers only.

MONOMER_SEQUENCE | protein stability index
LYPREGKYNHAACFGLQPGCLLPD [NLN] | 2.96
LQSAPDVKGRVRCLTAGPEVAAQL [ZSWIM9] | 3.51
LCAIAGVLTIALPVPVIVSNFNYF [KCNA1] | 3.23
SLLQSAWMEILILGVVYRSLSFED [ESRRG] | 3.09
RKLNSRLFVIRGQPADVFPRLFKE [CRY1] | 2.27

Record protein stability index for all entries; do not skip any.
1. GEKEEEDKDDEEKPKIEDVGSDEE [HSP90AB1]
2. RELREVRRVPPRFSIPPTNHEIMP [PTPRD]
3. ACGVILYILLVGYPPFWDEDQHKL [CAMK2B]

Reply:
[5.6, 3.74, 3.05]

* * *

assay: protein stability index of a GFP-peptide fusion (GPS, HEK-293T) (PSI 1-6); higher = more stable; details: treatment: MLN4924 1 uM, 8 h; c terminus: a fixed tail appended
Give measured protein stability index for each item. Keep answers brief.
Numbers only.

Take a look at these entries with their results.
MONOMER_SEQUENCE | protein stability index
EPAGSLRELGVWRSLLRLRATRAG [C2CD2L] | 3.06
KEILRTLQDVFCWLPLATLIDEKV [PPEF2] | 3.03
RDLTQEQTEKLLQFQDLTGIESMD [FAF2] | 5.05
CLAHLGEKVSQELKEPLHKALQML [BCL2L13] | 2.16
ALAEGYRYPELDTPKLDCFLSGME [TBX6] | 3.5
EGSREHAFQITGVWDASRAPRGTP [PLEKHN1] | 4.39
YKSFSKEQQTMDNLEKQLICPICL [TRIM55] | 2.77
PPRGPQQLSSFGSVDWLSQSSCSG [VENTX] | 3.96

Give measured protein stability index for every item shown.
1. TLALEALVQLRGRLTSQDWERVHL [ALG2]
2. SVTKEGLELPEDEEEKKKMEESKA [HSP90AB1]
3. PALEEAPDSHQKRPQHSHSNKKRP [ELOA2]

Reply:
1: 2.32; 2: 5.54; 3: 5.33

Dear reader, for each entry below, please note its protein stability index.
1. FSGDGEYIVAGSARQHALYIWEKS [RBBP5]
2. DPQILQMLKEEHQIILENQKNFGL [RAD54B]
3. SLGYVRSQFLKLKTSVEKANAQIQ [CD207]

Reply:
1. 2.57
2. 3.81
3. 2.81

Here are 7 sequences. What values of protein stability index were reported for them?
1. TNSTPLRAACFDGHLEVVRYLVGE [FEM1A]
2. QFHDLMELFRIGGKSPDTNYLFMG [PPP2CA]
3. MVVIHKEIPTGKKDHECSECGKTF [ZNF232]
4. NDFGVFLCKLFPFLQKSSVGITVL [EDNRA]
5. GIGDMAFEGDMGAAGGDGELGSPL [PSD2]
6. EVDPTGHSFVLVTSLGLTYDGMLS [MAGEA10]
7. IIELLGSIPRHFALSGKYSREFFN [SRPK2]

Reply:
2.4
2.24
3.28
3.26
5.46
2.52
2.56

* * *

assay: protein stability index of a GFP-peptide fusion (GPS, HEK-293T) (PSI 1-6); higher = more stable; conditions: treatment: MLN4924 1 uM, 8 h; c terminus: a fixed tail appended
# label = 1.0 if protein stability index >= 4 else 0.0

Here's what some known entries look like.
MONOMER_SEQUENCE | ASSIGNED_CLASS
LQALDPQQCVDKESSLGSESEEEE [SLC22A15] | 1.0
IWLAESVLDILTEQREWVLKSSIL [INTS3] | 0.0
STLKTLLFFTALMITVPIGLYFTT [VMA21] | 0.0
PPSGSQPLTSTQGLEHAAAGGSSG [FBF1] | 1.0

Kindly consider the entry below.
Task item: Form field: protein stability index at least 4? Entry: FVQDVLFVLQAIGIPGWGFSGWIS [SCAMP3]
Reply: 0.0

* * *

test: protein stability index of a GFP-peptide fusion (GPS, HEK-293T) (PSI 1-6); higher = more stable; conditions: treatment: MLN4924 1 uM, 8 h; c terminus: a fixed tail appended
Everything with protein stability index lower than 3 is Not satisfied; everything else, including exactly 3, is Satisfied.

Check out these entries, answers already filled in.
MONOMER_SEQUENCE | ASSIGNED_CLASS
KEEKCQGKGDDSETDKNNCSNAKA [KCNA4] | Satisfied
GAPSVGQPGAGFGMPPAGTGMPMM [SNAP91] | Satisfied
GYLIKILTNSNLPEEELDFFEILR [CNOT7] | Not satisfied
QALKFLPVPSAPVIDLAESLVADN [FSD1] | Satisfied
VFSTMAGLEEADAEVSVISEADPQ [FBF1] | Satisfied
GLASWPLARGIHVAGILSLLLGTA [POMT2] | Not satisfied
WSIVGMAVVKGIQSSGKVMYFSSL [SLC6A17] | Not satisfied
AYVLSKYQYFVCPVEYRSDVNSFV [CDS1] | Not satisfied
ELLTLVNRKVSQRRVDFCKDPSAI [CASP6] | Not satisfied
RDKNWQTPLHVAAANKAVKCAEVI [ANKRD44] | Satisfied

Task item: Form field: protein stability index at least 3? Entry: SRLMVVVKMDSSIQPGPFRAVLKY [RHOBTB2]
Reply: Not satisfied

Task item: Please tell me: is the sequence SLKDGLSDSDSELSSSEGLEPGSA [PSD2] at or over 3 in terms of protein stability index?
Reply: Satisfied

Task item: Reported protein stability index reaches at least 3 for TGKAPSPRAAHACATVGNRGFVFG [KLHDC2] ?
Reply: Not satisfied

Task item: # bool: protein stability index of DAAYRKALDLAREFLPQGPVAMRV [AUH] >= 3
Reply: Not satisfied

Task item: In plain terms: is recorded protein stability index at least 3 for SGMGGRAPVSRGRDSYGGPPRREP [RBMX] ?
Reply: Satisfied

Task item: State whether the measured protein stability index reaches 3, counting equality as reaching it, for PNPSKVLQQLLVLQPEQQLNIYKT [CDS1]
Reply: Not satisfied

Task item: Reported protein stability index reaches at least 3 for HMFVWGGYKSNQVRGLYDFYLPRE [KLHDC2] ?
Reply: Not satisfied

Task item: Kindly determine if protein stability index recorded for EMSIHLSRPNGTSAMLLVTLGKVL [MED27] is above or exactly 3.
Reply: Not satisfied

* * *

assay: protein stability index of a GFP-peptide fusion (GPS, HEK-293T) (PSI 1-6); higher = more stable; details: treatment: DMSO; c terminus: a fixed tail appended
For each of the sequences below, state its protein stability index.
Give bare numbers.

Example sequences with recorded protein stability index:
MONOMER_SEQUENCE | protein stability index
AIAWCLRNEGVSSVLLGASNADQL [KCNAB2] | 2.23
GDIASGYHYGVASCEACKAFFKRT [ESRRG] | 2.76
LQRGEALSALDSKANNLSSLSKKY [SEC22B] | 4.46
YRLTEHERAHKGEKPYGCSECGKA [ZNF649] | 4.55
PANSETSDLTLYLVVAVAAVSCVF [PCDHGA10] | 2.69
ELPSALESHEVPGTLSMGVPQIFK [ZNF24] | 4.07
NIKANDYANAVLQALSNVPPLRNY [USP39] | 2.18
PQAHQESTRGAARPAQAIGTQPRA [SPACA9] | 5.08

Hello, I would appreciate it if you could give protein stability index for each entry below.
1. SSDPFYTPEPDTCHELLGHVPLLA [TPH1]
2. YVHWPYCEKRCSYCNFNKYIPRRL [RSAD1]
3. LEKESDTPLQQVSIEEILEEQRVE [LSM1]
4. SRPELLQPLNFVRFYLPLLIHQHE [GLT8D2]

Reply:
[3.17, 2.62, 5.26, 3.09]

# batch: return protein stability index for each of the 4 sequences below
1. RARDSPEPGAGLGIGDMAFEGDMG [PSD2]
2. DEKYSIEPSWECKFDHIEVRDGPF [NETO1]
3. RMQVLKRQVQSLMVHQRKLEAELL [SMARCE1]
4. LEEQLQGWGEVMLMADKVLRWERA [ARL6IP1]

Reply:
[4.73, 3.78, 2.17, 2.49]

I need protein stability index for every entry listed below, if you could help.
1. STPKLTSRSAAQDLDRMGVMTLPS [PPFIA4]
2. PSLEELGFDTDGLSSAVWPGGETE [CRY1]
3. ALNWTDIPVAMEHQPPYIIAVLPR [VPS39]
4. PRKRHREDSDVEMVEDDSRKEMTA [MLH1]
5. KRQVPTEQARAYAEKNCMTFFEVS [RAB40C]
6. VIAINYNEKIYELRVMETKPDKAV [UFD1]
7. DMLLEKLPQVAEEISGPLTSANKI [FLOT1]

Reply:
1. 4.03
2. 5.33
3. 2.23
4. 5.43
5. 3.16
6. 1.89
7. 4.15
